Provenance of the data: patent US20150203579A1

target.of.assay: T1, recombinant human PD-1 expressed with a C-terminal myc-myc-hexahistidine tag (human)
T1 construct: monomeric; also called hPD-1-MMH; human PD-1-MMH
assay.method.text: SPR, mAb captured, 37C;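 further: rate constants from fitting sensorgrams to a 1:1 binding model, KD derived as kd divided by ka and half-life as ln2/(60·kd)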
Strictly below 2 min in t½: rule met. Otherwise: rule not met.

- binder: "H2aM7791N (antibody, mouse IgG2a, V domains shown, Human variable regions, mouse IgG2a Fc; also called H2M7791N) VH: QMQLQQWGAGLLKPSETLSLTCVVYGGSLNGYYWSWIRQSPGKGLEWIGEIDHSGSTNYNPSLKNRVTMSVDTSKIQFSLKLTSVTVADTAVYYCAREGLLPFDYWGQGTLVTVSS VL: EIVLTQSPGTLSLSPGERVTLSCRASQSVYSNYLAWYQQNPGQAPRLLIYAASNRATGIPDRFSGSGSGTDFTLTISRLEPEDFAVYYCHQYATSPWTFGQGTKVEIK"
  class.name: "rule not met"
- binder: "H4H7795N2 (antibody, human IgG4 S228P, kappa, V domains shown) VH: EVQVVESGGGLVEPGRSLRLSCKASGFTFDDYAMHWVRQTPGKALEWVSGISWSGNNIGYADSVKGRFTISKDDAKNSLYLQMNSLRPEDTALYYCTKDISITGTLDAFDVWGQGTMVTVSS VL: DIQMTQSPISVSASVGDRVTITCRASQGISNWLAWYQQKPGIAPKLLIYSASSLQSGVPSRFRGSGSGTDFTLTIGSLQPEDFATYYCQQAHSFPLTFGGGTKVEIKR"
  class.name: "rule met"
- binder: "H2aM7795N (antibody, mouse IgG2a, V domains shown, Human variable regions, mouse IgG2a Fc; also called H2M7795N) VH: EVQVVESGGGLVEPGRSLRLSCKASGFTFDDYAMHWVRQTPGKALEWVSGINWSGNNIGYADSVKGRFTISKDDAKNSLYLQMNSLRPEDTALYYCTKDISITGTLDAFDVWGQGTMVTVSS VL: DIQMTQSPISVSASVGDRVTITCRASQGISNWLAWYQQKPGIAPKLLIYSASSLQSGVPSRFRGSGSGTDFTLTIGSLQPEDFATYYCQQAHSFPLTFGGGTKVEIK"
  class.name: "rule not met"
- binder: "H1M7789N (antibody, mouse IgG1, V domains shown, Human variable regions, mouse IgG1 Fc) VH: EVQLLESGGGLVQPGGSLRLSCSASGFTFSSYTMNWVRQAPGKGLEWVSGISDTGGNTYYTDSVKGRFTVSRDNSKNTLSLQMNSLRAEDTAVYYCAKDQGGSYPYYFHYWGQGSLVTVSS VL: DIQMTQSPSSLSASVGDRVTITCRASQSISSYLIWYQQKPGTAPKFLIYAASSLQSGVPSRFSGCGSGTDFTLTISSLQPEDFATYYCQQSYSTPPITFGQGTRLEIK"
  class.name: "rule not met"
- binder: "H1M7800N (antibody, mouse IgG1, V domains shown, Human variable regions, mouse IgG1 Fc) VH: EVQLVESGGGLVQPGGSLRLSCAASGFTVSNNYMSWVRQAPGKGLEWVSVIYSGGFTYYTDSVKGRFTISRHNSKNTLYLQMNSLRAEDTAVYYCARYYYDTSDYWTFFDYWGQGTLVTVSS VL: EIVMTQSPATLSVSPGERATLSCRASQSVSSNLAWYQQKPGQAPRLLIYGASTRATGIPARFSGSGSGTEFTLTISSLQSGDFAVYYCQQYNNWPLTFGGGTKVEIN"
  class.name: "rule met"

Incoming: Hello, is t½ of the following binder strictly smaller than 2 min? H2aM7780N (antibody, mouse IgG2a, V domains shown, Human variable regions, mouse IgG2a Fc (H2aM prefix); also called H2M7780N) VH: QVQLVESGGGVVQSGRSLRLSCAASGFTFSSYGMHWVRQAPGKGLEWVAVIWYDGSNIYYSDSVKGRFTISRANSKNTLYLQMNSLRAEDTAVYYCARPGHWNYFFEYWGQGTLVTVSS VL: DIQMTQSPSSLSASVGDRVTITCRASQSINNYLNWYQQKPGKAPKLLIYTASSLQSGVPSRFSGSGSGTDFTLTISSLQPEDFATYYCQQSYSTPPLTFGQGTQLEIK
Outgoing: rule not met

Incoming: Hello, is t½ of the following binder strictly smaller than 2 min? H1M7799N (antibody, mouse IgG1, V domains shown, Human variable regions, mouse IgG1 Fc) VH: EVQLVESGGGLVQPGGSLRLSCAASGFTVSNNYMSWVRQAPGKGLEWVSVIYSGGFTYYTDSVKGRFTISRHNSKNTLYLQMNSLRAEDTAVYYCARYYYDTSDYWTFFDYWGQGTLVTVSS VL: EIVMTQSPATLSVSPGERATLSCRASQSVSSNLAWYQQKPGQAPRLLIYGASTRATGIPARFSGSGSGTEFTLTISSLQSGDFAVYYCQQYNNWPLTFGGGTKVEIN
Outgoing: rule met
